- Tested on: human erythrocytes (RBC)
- procedure_text: Hemolytic assay, human erythrocytes
- Assay type: cell-based
- test_conditions: Homo sapiens, Erythrocyte, 0.5 h; RBC primary cells, hemolysis, 30 min, 10% hematocrit; read-out: IC50
measurement_name: pIC50
In simple prose, pIC50 is minus the logarithm base ten of a concentration in moles per litre.

Report pIC50 for C[C@@H]1[C@H](O)[C@@H](C)/C=C/C=C/C=C/C=C/C=C/C=C/C=C/[C@H](O[C@@H]2O[C@H](C)[C@@H](O)[C@H](N)[C@@H]2O)C[C@@H]2O[C@](O)(C[C@@H](O)C[C@@H](O)[C@H](O)CC[C@@H](O)C[C@@H](O)CC(=O)O[C@H]1C)C[C@H](O)[C@H]2C(=O)O [Amphotericin B, reference compound]
4.60

###

- System: human erythrocytes (RBC)
- procedure_text: Hemolytic assay, human erythrocytes
- Format: cell-based
- test_conditions: Homo sapiens, Erythrocyte, 0.5 h
Task for the reader: assign each of the following compounds its reported IC50.

Report IC50 for C[C@H]1Oc2cc3c(-c4c(O)cc(O)c5c(O)c6c(cc45)O[C@H](C)[C@@H](C)C6=O)c(O)cc(O)c3c(O)c2C(=O)[C@@H]1C
> 200 µM

Report IC50 for C[C@@H]1Oc2cc3c(-c4c(O)cc(O)c5c(O)c6c(cc45)O[C@H](C)[C@@H](C)C6=O)c(O)cc(O)c3c(O)c2C(=O)[C@@H]1C
> 200 µM
